Measured Target: human pancreatic α-amylase (HPA) (Homo sapiens, UniProt P04746)
Sequence (P04746 16-511): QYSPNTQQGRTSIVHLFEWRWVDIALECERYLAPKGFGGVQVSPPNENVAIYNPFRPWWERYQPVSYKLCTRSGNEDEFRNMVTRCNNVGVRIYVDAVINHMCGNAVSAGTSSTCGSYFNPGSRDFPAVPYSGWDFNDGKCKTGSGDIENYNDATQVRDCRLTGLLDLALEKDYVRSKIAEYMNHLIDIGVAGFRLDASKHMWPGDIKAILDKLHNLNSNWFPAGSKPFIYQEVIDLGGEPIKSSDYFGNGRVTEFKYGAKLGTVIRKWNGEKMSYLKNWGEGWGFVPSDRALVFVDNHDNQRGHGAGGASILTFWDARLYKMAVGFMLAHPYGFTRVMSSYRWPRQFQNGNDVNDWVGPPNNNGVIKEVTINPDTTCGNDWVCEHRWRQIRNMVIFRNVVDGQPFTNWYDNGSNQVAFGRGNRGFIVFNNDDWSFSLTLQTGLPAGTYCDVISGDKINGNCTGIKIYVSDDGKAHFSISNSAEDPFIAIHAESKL

{"Molecular String": "C[C@H]1O[C@@H](O[C@H]2[C@H](O)[C@@H](O)[C@@H](O[C@H]3[C@H](O)CN[C@@H]3CO)O[C@@H]2CO)[C@H](O)[C@@H](O)[C@@H]1O", "IC50 (nM)": 453}
